As shown below, each of these molecules has a reported IC50 value.
- Measured target: mSSTR2 (Mus musculus, UniProt P30875)
- Construct: expressed in transfected cells; host or cells: COS and CHO cells
- Sequence (P30875 whole entry): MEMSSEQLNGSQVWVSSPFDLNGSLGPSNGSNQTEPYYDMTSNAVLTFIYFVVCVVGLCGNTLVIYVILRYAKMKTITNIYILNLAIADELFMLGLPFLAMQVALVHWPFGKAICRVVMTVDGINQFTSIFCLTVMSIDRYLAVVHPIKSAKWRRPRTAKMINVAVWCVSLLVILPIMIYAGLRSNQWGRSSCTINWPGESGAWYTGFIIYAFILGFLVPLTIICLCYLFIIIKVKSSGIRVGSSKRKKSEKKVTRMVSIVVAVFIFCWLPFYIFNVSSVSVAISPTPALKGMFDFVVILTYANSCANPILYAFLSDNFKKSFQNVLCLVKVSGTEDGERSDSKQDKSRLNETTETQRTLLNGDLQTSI
- Measurement protocol: Inhibition of [125I-Tyr11]SRIF binding to cloned mSSTR2 (Table)
Where a SMILES comes first, the peptide text is derived from it. Bridges are numbered along the chain shown (N, C = ends). [ ]: non-standard residue; d: D form. Phe(4-CH2NHiPr) = CC(C)NCc1ccc(C[C@H](N)C(=O)O)cc1

>>> value_reported("CC(C)NCc1ccc(C[C@@H]2NC(=O)[C@@H](Cc3c[nH]c4ccccc34)NC(=O)[C@H](Cc3ccccc3)NC(=O)[C@H](Cc3ccccc3)NC(=O)[C@H](CCCCN)NC(=O)[C@@H](NC(=O)[C@@H](N)Cc3ccc(O)cc3)CSSC[C@@H](C(=O)O)NC(=O)[C@H](CO)NC(=O)[C@H]([C@@H](C)O)NC(=O)[C@H](Cc3ccccc3)NC(=O)[C@H]([C@@H](C)O)NC2=O)cc1 [Peptide No. 5] (H-YCKFF[dW][Phe(4-CH2NHiPr)]TFTSC-OH; disulfide 2-12)")
"> 100 nM"
>>> value_reported("CC(C)NCc1ccc(C[C@@H]2NC(=O)[C@@H](Cc3c[nH]c4ccccc34)NC(=O)[C@H](Cc3ccccc3)NC(=O)[C@H](Cc3ccccc3)NC(=O)[C@H](CC(N)=O)NC(=O)[C@H](CCCCN)NC(=O)[C@@H](N)CSSC[C@@H](C(=O)O)NC(=O)[C@H](CO)NC(=O)[C@H]([C@@H](C)O)NC(=O)[C@H](Cc3ccccc3)NC(=O)[C@H]([C@@H](C)O)NC2=O)cc1 [Peptide No. 9] (H-CKNFF[dW][Phe(4-CH2NHiPr)]TFTSC-OH; disulfide 1-12)")
"> 1000 nM"
>>> value_reported("CC(C)NCc1ccc(C[C@@H]2NC(=O)[C@@H](Cc3c[nH]c4ccccc34)NC(=O)[C@H](Cc3ccccc3)NC(=O)[C@H](Cc3ccccc3)NC(=O)[C@H](CCCCN)NC(=O)[C@@H](N)CSSC[C@@H](C(=O)O)NC(=O)[C@@H](CO)NC(=O)[C@H]([C@@H](C)O)NC(=O)[C@H](Cc3ccccc3)NC(=O)[C@H]([C@@H](C)O)NC2=O)cc1 [Peptide No. 4] (H-CKFF[dW][Phe(4-CH2NHiPr)]TFT[dS]C-OH; disulfide 1-11)")
"> 1000 nM"
>>> value_reported("CC(C)NCc1ccc(C[C@@H]2NC(=O)[C@@H](Cc3c[nH]c4ccccc34)NC(=O)[C@H](Cc3ccccc3)NC(=O)[C@H](Cc3ccccc3)NC(=O)[C@H](CCCCN)NC(=O)[C@@H](N)CSSC[C@@H](C(=O)O)NC(=O)[C@H](CO)NC(=O)[C@H]([C@@H](C)O)NC(=O)[C@H](Cc3ccccc3)NC(=O)[C@H]([C@@H](C)O)NC2=O)cc1 [Peptide No. 2, des-AA^1,2,5 [D-Trp^8, IAmp^9]-SRIF] (H-CKFF[dW][Phe(4-CH2NHiPr)]TFTSC-OH; disulfide 1-11)")
"1100 nM"

Moving on to the next molecule.
response.value for CC(C)NCc1ccc(C[C@@H]2NC(=O)[C@@H](Cc3c[nH]c4ccccc34)NC(=O)[C@H](Cc3ccccc3)NC(=O)[C@H](Cc3ccccc3)NC(=O)[C@@H](N)CSSC[C@@H](C(=O)O)NC(=O)[C@H](Cc3ccccc3)NC(=O)[C@H]([C@@H](C)O)NC2=O)cc1 [[IAmp^9]ODT8, [IAmp^5]-ODT8] (H-CFF[dW][Phe(4-CH2NHiPr)]TFC-OH; disulfide 1-8) (field: IC50) = > 1000 nM
